target: human liver glycogen phosphorylase a (HLGPa) (Homo sapiens); construct: creating a full-length cDNA fused at the 5′ end to codons for methionine-glycine-alanine-histidine; 6xHis tag (leader Met-Gly-Ala-His6-Gly-Gly) (N); made in house; host or cells: E. coli (bacterial expression plasmid pTXK1007LTev); test: Human liver glycogen phosphorylase a enzymatic activity assay (coupled, fluorescent resorufin readout, with and without 10 mM glucose); type: biochemical; conditions: human liver glycogen phosphorylase a enzymatic activity assay
PROPERTY_MEASURED: IC50 (nM)
Field: numeric (nM). Do not append units.

The examples below pair each entry with its known result.
Request: Name the recorded IC50 of the molecule listed here: Cc1cccc(Cl)c1NC(=O)Nc1cc(F)c(F)cc1C(=O)N[C@H](C(=O)O)C1CCCCC1
Result: 860

Request: Name the recorded IC50 of the molecule listed here: O=C(Cc1c(Cl)ccc(Cl)c1Cl)Nc1cc2ccccc2cc1C(=O)N[C@H](C(=O)O)C1CCCCC1
Result: 180

Request: Name the recorded IC50 of the molecule listed here: Cc1cc(F)ccc1-c1cc(C(=O)N[C@H](C(=O)O)C2CCCCC2)c(NC(=O)Nc2c(Cl)cccc2Cl)s1
Result: 1390

Shift focus to the following entry.
Request: Name the recorded IC50 of the molecule listed here: Cc1cccc(Cl)c1NC(=O)Nc1cc(Cl)ccc1C(=O)N[C@H](C(=O)O)C1CCCCC1
Result: 180

* * *

Here the recorded log10(IC50) is given for each entry.
target: human liver glycogen phosphorylase a (HLGPa) (Homo sapiens); construct: creating a full-length cDNA fused at the 5′ end to codons for methionine-glycine-alanine-histidine; 6xHis tag (leader Met-Gly-Ala-His6-Gly-Gly) (N); made in house; host or cells: E. coli (bacterial expression plasmid pTXK1007LTev); assay: Human liver glycogen phosphorylase a enzymatic activity assay (coupled, fluorescent resorufin readout, with and without 10 mM glucose); assay type: biochemical; conditions: human liver glycogen phosphorylase a; table does not say whether with or without 10 mM glucose
Remember, log10 of IC50, in nM.

The examples below pair each entry with its known result.
Request: Name the recorded log10(IC50) of the compound listed here: CNC(=O)NC1CCC(C(NC(=O)c2cc3ccccc3cc2NC(=O)Nc2c(C)cc(C)cc2C)C(=O)O)CC1 (mixture of isomers)
Result: 2.00

Request: Name the recorded log10(IC50) of the compound listed here: CCCc1cc(C)c(NC(=O)Nc2cc(Cl)cnc2C(=O)NC2(C(=O)O)CCCCCCC2)c(C)c1
Result: 1.58

Request: Name the recorded log10(IC50) of the compound listed here: Cc1cc(Br)cc(C)c1NC(=O)Nc1cc2ccccc2cc1C(=O)NC1(C(=O)O)CCCCCC1
Result: 2.40

Request: Name the recorded log10(IC50) of the compound listed here: CCCCc1ccc(NC(=O)Nc2cc3ccccc3cc2C(=O)N[C@H](C(=O)O)C2CCCCC2)cc1
Result: 4.02

Request: Name the recorded log10(IC50) of the compound listed here: O=C(Nc1cc2ccccc2cc1C(=O)N(Cc1ccccc1)[C@@H](Cc1ccccc1)C(=O)O)Nc1c(Cl)cccc1Cl
Result: 4.09

Request: Name the recorded log10(IC50) of the compound listed here: O=C(Nc1cc(-c2ccccc2)ccc1C(=O)N[C@H](C(=O)O)C1CCCCC1)Nc1c(Cl)cc(Cl)cc1Cl
Result: 2.11

Shift focus to the following entry.
Request: Name the recorded log10(IC50) of the compound listed here: CCOC(=O)C[C@H](NC(=O)c1ccc(-c2ccc(OC)cc2)cc1NC(=O)Nc1c(C)cc(Br)cc1C)C(=O)OCc1ccccc1
Result: 3.75

* * *

target: human liver glycogen phosphorylase a (HLGPa) (Homo sapiens, UniProt P06737); construct: creating a full-length cDNA fused at the 5′ end to codons for methionine-glycine-alanine-histidine; 6xHis tag (leader Met-Gly-Ala-His6-Gly-Gly) (N); made in house; host or cells: E. coli (bacterial expression plasmid pTXK1007LTev); assay: Human liver glycogen phosphorylase a enzymatic activity assay (coupled, fluorescent resorufin readout, with and without 10 mM glucose); assay type: biochemical; details: human liver glycogen phosphorylase a enzymatic activity assay
Sequence (P06737 2-847 limits assumed): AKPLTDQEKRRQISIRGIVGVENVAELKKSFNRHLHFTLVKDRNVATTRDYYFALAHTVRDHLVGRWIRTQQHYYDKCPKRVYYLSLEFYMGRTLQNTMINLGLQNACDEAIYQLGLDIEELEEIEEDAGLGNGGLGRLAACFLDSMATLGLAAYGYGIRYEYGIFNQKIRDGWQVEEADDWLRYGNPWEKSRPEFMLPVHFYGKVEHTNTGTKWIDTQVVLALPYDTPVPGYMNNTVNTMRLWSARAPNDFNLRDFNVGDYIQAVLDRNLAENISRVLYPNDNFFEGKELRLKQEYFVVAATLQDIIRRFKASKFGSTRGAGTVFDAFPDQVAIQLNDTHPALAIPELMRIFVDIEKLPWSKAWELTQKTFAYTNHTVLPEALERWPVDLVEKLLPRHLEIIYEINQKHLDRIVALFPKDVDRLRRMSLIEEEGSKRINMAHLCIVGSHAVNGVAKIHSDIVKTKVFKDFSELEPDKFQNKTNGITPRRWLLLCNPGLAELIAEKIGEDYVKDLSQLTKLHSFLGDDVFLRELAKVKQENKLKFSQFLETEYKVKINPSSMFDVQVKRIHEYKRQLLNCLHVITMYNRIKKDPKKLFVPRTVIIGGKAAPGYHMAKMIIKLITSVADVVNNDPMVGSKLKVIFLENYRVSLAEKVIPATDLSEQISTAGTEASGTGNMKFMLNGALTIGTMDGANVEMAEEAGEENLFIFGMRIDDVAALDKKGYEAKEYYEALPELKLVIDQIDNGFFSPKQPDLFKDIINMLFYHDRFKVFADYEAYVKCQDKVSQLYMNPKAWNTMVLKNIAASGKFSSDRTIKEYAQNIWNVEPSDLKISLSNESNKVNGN
Counter-ions that a name gives are not always drawn.
PROPERTY_MEASURED: pIC50
Reminder that pIC50 means the negative base-10 logarithm of the concentration expressed in mol/L.

Request: Name the recorded pIC50 of the molecule listed here: COc1cc(NC(=O)Nc2c(C)cccc2C)c(C(=O)N[C@@H](CC2CCCCC2)C(=O)O)cc1OC
Result: 4.87

Continuing:
Request: Name the recorded pIC50 of the molecule listed here: Cc1cc(C)c(NC(=O)Nc2cc(-c3ccc(O)cc3)ccc2C(=O)N[C@H](C(=O)O)C2CCCCC2)c(C)c1
Result: 7.96

Request: Name the recorded pIC50 of the molecule listed here: Cc1cccc(C)c1NC(=O)Nc1cc2ccccc2cc1C(=O)N[C@@H](CCCCN)C(=O)O [Example 47, trifluoroacetate]
Result: 5.09

Request: Name the recorded pIC50 of the molecule listed here: Cc1cccc(C)c1NC(=O)Nc1cc(Br)ccc1C(=O)N[C@H](C(=O)O)C1CCCCC1
Result: 6.51

Request: Name the recorded pIC50 of the molecule listed here: Cc1cccc(C)c1NC(=O)Nc1cc(Cl)ccc1C(=O)N[C@@H](CC(=O)O)C(=O)O
Result: 6.11

Request: Name the recorded pIC50 of the molecule listed here: CC[C@H](C)[C@H](NC(=O)c1cc(F)c(F)cc1NC(=O)Nc1c(C)cccc1C)C(=O)O
Result: 5.06

Request: Name the recorded pIC50 of the molecule listed here: CC[C@H](C)[C@H](NC(=O)c1cc2ccccc2cc1NC(=O)Nc1c(C)cccc1Cl)C(=O)O
Result: 6.55

Request: Name the recorded pIC50 of the molecule listed here: COc1ccc(-c2cc(NC(=O)Nc3c(C)cc(C)cc3C)c(C(=O)N[C@@H](COC(C)(C)C)C(=O)O)s2)cc1
Result: 7.09

* * *

molecular target: human liver glycogen phosphorylase a (HLGPa) (Homo sapiens, UniProt P06737); construct: creating a full-length cDNA fused at the 5′ end to codons for methionine-glycine-alanine-histidine; 6xHis tag (leader Met-Gly-Ala-His6-Gly-Gly) (N); made in house; host or cells: E. coli (bacterial expression plasmid pTXK1007LTev); test: Human liver glycogen phosphorylase a enzymatic activity assay (coupled, fluorescent resorufin readout, with and without 10 mM glucose); assay type: biochemical; settings: human liver glycogen phosphorylase a; table does not say whether with or without 10 mM glucose
Cut-off 400 nM on IC50: below means t, at or above means f.

Request: Does the reported IC50 of the following molecule sit strictly below 400 nM? Cc1cc(C)c(NC(=O)Nc2cc3ccccc3cc2C(=O)N[C@@H](CC(=O)OC(C)(C)C)C(=O)OC(C)(C)C)c(C)c1 [Example 353]
Result: f

Request: Does the reported IC50 of the following molecule sit strictly below 400 nM? O=C(Nc1cc(-c2ccc(F)cc2)sc1C(=O)O)Nc1c(Cl)cccc1Cl [Example 385]
Result: f

Request: Does the reported IC50 of the following molecule sit strictly below 400 nM? O=C(Nc1cc2ccccc2cc1C(=O)N1CCCC(C(=O)O)C1)Nc1c(Cl)cccc1Cl (stereo not shown) [Example 333]
Result: f

Request: Does the reported IC50 of the following molecule sit strictly below 400 nM? Cc1cc(C)c(NC(=O)Nc2cc3ccccc3cc2C(=O)NC(C(=O)O)C2CCC(N3CCOCC3)CC2)c(C)c1 (mixture of isomers) [Example 348]
Result: f

Request: Does the reported IC50 of the following molecule sit strictly below 400 nM? CCCCN1CCC(NC(=O)c2cc3ccccc3cc2NC(=O)Nc2c(C)cc(C)cc2C)(C(=O)O)CC1 [Example 289]
Result: f

Continuing:
Request: Does the reported IC50 of the following molecule sit strictly below 400 nM? Cc1cc(C)c(NC(=O)Nc2cc(S(C)(=O)=O)ccc2C(=O)N[C@H](C(=O)O)C2CCCCC2)c(C)c1 [Example 220]
Result: f

Request: Does the reported IC50 of the following molecule sit strictly below 400 nM? O=C(Nc1cc2ccccc2cc1C(=O)NC1(C(=O)O)CCCCCCC1)Nc1c(Cl)cc(Cl)cc1Cl [Example 303]
Result: t

Request: Does the reported IC50 of the following molecule sit strictly below 400 nM? CCCC(CCC)(NC(=O)c1cc2ccccc2cc1NC(=O)Nc1c(Cl)cccc1Cl)C(=O)O [Example 316]
Result: t

Request: Does the reported IC50 of the following molecule sit strictly below 400 nM? CCCc1cc(C)c(NC(=O)Nc2cc3ccccc3cc2C(=O)NC2(C(=O)O)CCCCCC2)c(C)c1 [Example 309]
Result: t

Request: Does the reported IC50 of the following molecule sit strictly below 400 nM? Cc1cc(C)c(NC(=O)Nc2cc(F)ccc2C(=O)N[C@H](C(=O)O)C2CCCC2)c(C)c1 [Example 211]
Result: t

Request: Does the reported IC50 of the following molecule sit strictly below 400 nM? CCOC(=O)C[C@H](NC(=O)c1cc2ccccc2cc1NC(=O)Nc1c(C)cc(C)cc1C)C(=O)O [Example 363]
Result: t

Request: Does the reported IC50 of the following molecule sit strictly below 400 nM? Cc1cc(C)c(NC(=O)Nc2cc3ccccc3cc2C(=O)N2CCCC[C@H]2C(=O)O)c(C)c1 [Example 257]
Result: f

Request: Does the reported IC50 of the following molecule sit strictly below 400 nM? CCCc1cc(C)c(NC(=O)Nc2cc(-c3ccc(OC)cc3)ccc2C(=O)N[C@@H](CC(=O)O)C(=O)O)c(C)c1 [Example 370]
Result: t

Request: Does the reported IC50 of the following molecule sit strictly below 400 nM? C[C@@H](C(=O)O)N(Cc1ccccc1)C(=O)c1cc2ccccc2cc1NC(=O)Nc1c(Cl)cccc1Cl [Example 250]
Result: f

Request: Does the reported IC50 of the following molecule sit strictly below 400 nM? Cc1cc(C)c(NC(=O)Nc2cc(F)c(F)cc2C(=O)N[C@H](C(=O)O)C2CCCCC2)c(C)c1 [Example 230]
Result: t

Request: Does the reported IC50 of the following molecule sit strictly below 400 nM? Cc1cc(C)c(NC(=O)Nc2cc3ccccc3cc2C(=O)NC(CCC(C)CC(C)(C)C)C(=O)O)c(C)c1 (stereo not shown) [Example 264]
Result: t
